Tested on: BGC-823
Assay: Cytotoxicity against human BGC823 cells after 48 hrs
Format: functional, cell-based
Conditions: BGC-823, 48 h
Please provide measured IC50 for the entries that follow.

Examples with answers:
molecule: C=C1C(=O)O[C@@H]2C[C@@]1(C)OC[C@H]2C1CCC2C3C[C@H](O)[C@]4(O)CC=CC(=O)C4(C)C3CCC21C (stereo partly drawn)
IC50: > 10 µM
--
molecule: C=C1C(=O)O[C@@H]2C[C@@]1(C)OC[C@H]2C1CCC2C3C[C@H]4OC(=O)CC=CC4=C(C)C3C[C@@H](O)C21C (stereo partly drawn) [12BETA-HYDROXY-1,10-SECO-WITHAMETELIN B]
IC50: > 10 µM

Let us move to another entry and its IC50.
Which IC50 is reported with BGC-823 for this entry: C=C1C(=O)O[C@@H]2C[C@@]1(C)OC[C@H]2C1CCC2C3C[C@H]4OC(=O)CC=CC4=C(C)C3CCC21C (stereo partly drawn) ?
> 10 µM
